System: Metrazol-induced clonic seizures
TEST SUMMARY: Subcutaneous Metrazol test (scMet), mice
Assay type: in vivo
COND: Mice IP, 100 mg/kg, 4.0 hr
Entries and their scMet, animals protected/tested
ASSAY READOUT: scMet, animals protected/tested

COMPOUND	REPORTED RESULT
C#Cc1ccc2c(c1)C(c1ccccc1F)=NCc1c(C(=O)OCC)ncn1-2	0/1
C#Cc1ccc2c(c1)C(c1ccccc1)=NCc1c(C(=O)OCC)ncn1-2	0/1
C#Cc1ccc2c(c1)C(c1ccccc1)=N[C@H](C)c1nnc(C)n1-2	0/1
C#Cc1ccc2c(c1)C(c1ccccc1Cl)=NCc1nnc(C)n1-2	1/1
C#Cc1ccc2c(c1)C(c1ccccn1)=NCc1c(C(=O)OCC)ncn1-2	0/1
C#Cc1ccc2c(c1)C(c1ccccc1F)=NC(C)c1c(C(=O)OCC)ncn1-2 (single isomer, unassigned)	0/1
C#Cc1ccc2c(c1)C(c1cccs1)=NCc1c(C(=O)OCC)ncn1-2	0/1
C#Cc1ccc2c(c1)C(c1ccccc1)=N[C@@H](C)c1nnc(C)n1-2	1/1

====

TEST SUMMARY: Toxicity (TOX), minimal motor deficit, rats
Assay type: in vivo
COND: in vivo; Rat IP
Protocol: The benzodiazepine derivative compounds selective for GABAa receptor subunits were tested for the ability to suppress seizures in several standard rat and mouse models of epilepsy. […] To assess a compound's undesirable side effects (toxicity), animals are monitored for overt signs of impaired neurological or muscular function. […]

STRUCTURE	TD50
C#Cc1ccc2c(c1)C(c1ccccc1F)=NCc1c(C(=O)OCC)ncn1-2	69.6 mg/kg
C#Cc1ccc2c(c1)C(c1ccccc1Cl)=NCc1nnc(C)n1-2	2.08 mg/kg
C#Cc1ccc2c(c1)C(c1ccccn1)=NCc1c(C(=O)OCC)ncn1-2	95.3 mg/kg

====

Entries annotated with measured Tox, animals toxic/tested
System: minimal motor deficit (ataxia, abnormal gait)
TEST SUMMARY: Toxicity (TOX), minimal motor deficit, rats
Type: in vivo
COND: Rat PO, 50 mg/kg, 1.0 h
ASSAY READOUT: Tox, animals toxic/tested

COMPOUND	TARGET DESC	REPORTED RESULT
C#Cc1ccc2c(c1)C(c1ccccc1Cl)=NCc1nnc(C)n1-2	minimal motor deficit (ataxia, abnormal gait)	0/4
C#Cc1ccc2c(c1)C(c1ccccc1F)=NC(C)c1c(C(=O)OCC)ncn1-2 (single isomer, unassigned)	minimal motor deficit (ataxia, abnormal gait)	0/4
C#Cc1ccc2c(c1)C(c1ccccc1F)=NCc1c(C(=O)OCC)ncn1-2	minimal motor deficit (ataxia, abnormal gait)	0/4
C#Cc1ccc2c(c1)C(c1ccccc1)=N[C@H](C)c1nnc(C)n1-2	minimal motor deficit (ataxia, abnormal gait)	1/4
C#Cc1ccc2c(c1)C(c1ccccn1)=NCc1c(C(=O)OCC)ncn1-2	minimal motor deficit (ataxia, abnormal gait)	0/4
C#Cc1ccc2c(c1)C(c1ccccc1)=N[C@@H](C)c1nnc(C)n1-2	minimal motor deficit (ataxia, abnormal gait)	0/4

====

TARGET DESC: GABAA/α3 (α3β3γ2 GABAA receptors) (Homo sapiens, UniProt P18507+P34903)
Construct: expressed in transfected cells
TEST SUMMARY: Competitive binding assay, [3H]flunitrazepam
COND: Binding Affinity at GABAA/α3, αxβ3γ2, [3H]flunitrazepam competition
pKi: −log10 of the molar value.
Measured pKi by item

MOLECULE	pKi
C#Cc1ccc2c(c1)C(c1ccccc1)=NC(C)c1c(C(=O)OCC)ncn1-2 (single isomer, unassigned) [SH-053-R-CH3]	5.93
C#Cc1ccc2c(c1)C(c1cccs1)=NCc1c(C(=O)OCC)ncn1-2	6.74
C#Cc1ccc2c(c1)C(c1ccccc1)=NCc1c(C(=O)OCC(F)(F)F)ncn1-2	7.45
C#Cc1ccc2c(c1)C(c1ccccc1)=NC(C)c1c(C(=O)OCC)ncn1-2 (single isomer, unassigned) [SH-053-S-CH3]	5.90
C#Cc1ccc2c(c1)C(c1ccccc1)=NCC(=O)N2C	7.32

Origin of measurements: patent US20100261711A1
